System: AM-38;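 also: growth inhibition of AM-38 cells of human origin, read out by a cell viability assay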
run description: cells
Assay type: functional, cell-based, Homo sapiens
test settings: Homo sapiens, AM-38
Description: SANGER: Inhibition of human AM-38 cell growth in a cell viability assay.
pIC50: −log10 of the molar value.
Entries annotated with measured pIC50

Recorded results for 4 compounds are shown here.
- compound: "Cc1cc(N2CCOCC2)cc2[nH]c(-c3c(NC[C@@H](O)c4cccc(Cl)c4)cc[nH]c3=O)nc12"
  pIC50: "< 5.29"
- compound: "O=C1NC(=O)c2c1c(-c1ccccc1Cl)cc1[nH]c3ccc(O)cc3c21"
  pIC50: "< 5.70"
- compound: "C=CC(=O)N1CCCC(Nc2nc(Nc3ccc(N(C)C(=O)CC)cc3)nc3[nH]cnc23)C1 (configuration not stated)"
  pIC50: "< 4.99"
- compound: "COC(=O)[C@H](CCSC)NC(=O)c1ccc(NC[C@@H](N)CS)cc1-c1ccccc1"
  pIC50: "< 5.99"

Query block: Supply recorded pIC50 for CS(=O)(=O)N1CCN(Cc2cc3nc(-c4cccc5[nH]ncc45)nc(N4CCOCC4)c3s2)CC1 here.
Result block: < 5.40

Query block: Respond only with pIC50 recorded for NC(=O)c1cccc(-c2cc(Nc3ccc(OC(F)(F)F)cc3)ncn2)c1
Result block: < 5.89

Query block: Give a short answer stating reported pIC50 for Cc1ccc(NC(=O)c2ccc(CN3CCN(C)CC3)cc2)cc1Nc1nccc(-c2cccnc2)n1 .
Result block: < 5.70

---

Test system: LC-2-ad;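 also: growth inhibition of human LC-2-ad cells, read out with a cell viability assay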
run description: cells
Type: functional, cell-based, Homo sapiens
test settings: Homo sapiens, LC-2-ad
Description: SANGER: Inhibition of human LC-2-ad cell growth in a cell viability assay.
metric name: pIC50
// pIC50 is dimensionless: -log10 of concentration (M)

- chem smiles: "O=C(NCCCNc1nc(Nc2cccc(NC(=O)N3CCCC3)c2)ncc1I)c1cccs1"
  study target: "LC-2-ad"
  pIC50: 5.83
- chem smiles: "CC(C)C[C@H](NC(=O)[C@H](Cc1ccccc1)NC(=O)c1cnccn1)B(O)O"
  study target: "LC-2-ad"
  pIC50: 8.96

For the next question, use this molecule.
Query block: Note down pIC50 recorded for COc1ccc(N(C(=O)Oc2c(C)cccc2C)c2ccnc(Nc3ccc(N4CCN(C)CC4)cc3)n2)c(OC)c1
Result block: 7.69

---

Consider the following compounds and their measured pIC50 readings.
System: OE19;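 also: growth inhibition of OE19 cells, measured through a cell viability read-out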
run description: cells
Type: functional, cell-based
test settings: Homo sapiens
Description: SANGER: Inhibition of human OE19 cell growth in a cell viability assay.
pIC50: −log10 of the molar value.

- chem smiles: "CC1=C(/C=C/C(C)=C/C=C/C(C)=C/C(=O)O)C(C)(C)CCC1"
  study target: "OE19"
  pIC50: "< 5.00"
- chem smiles: "COc1ccc(-c2cc3nccn3c(Nc3ncccc3C(N)=O)n2)cc1OC"
  study target: "OE19"
  pIC50: "< 5.10"
- chem smiles: "CN(NC(=O)CC(=O)NN(C)C(=S)c1ccccc1)C(=S)c1ccccc1"
  study target: "OE19"
  pIC50: "< 6.70"
- chem smiles: "O=C(NCCCNc1nc(Nc2cccc(NC(=O)N3CCCC3)c2)ncc1I)c1cccs1"
  study target: "OE19"
  pIC50: "< 5.30"

Turning now to a further record.
Query block: Give pIC50 only, for CC1(C)CCC(c2ccc(Cl)cc2)=C(CN2CCN(c3ccc(C(=O)NS(=O)(=O)c4ccc(N[C@H](CCN5CCOCC5)CSc5ccccc5)c(S(=O)(=O)C(F)(F)F)c4)cc3)CC2)C1 , using OE19 data.
Result block: < 5.70

---

Tested on: NCI-H810
run description: cells
Type: functional, cell-based
test settings: Homo sapiens
Description: SANGER: Inhibition of human NCI-H810 cell growth in a cell viability assay.
pIC50: −log10 of the molar value.
Parameter pIC50: see the listing below.

Record excerpt, results attached:
- compound: "NC1(c2ccc(-c3nc4ccn5c(=O)[nH]nc5c4cc3-c3ccccc3)cc2)CCC1 [MK-2206]"
  pIC50: "< 5.40"
- compound: "NC(=O)c1ccc(N(C(N)=O)c2c(F)cccc2F)nc1-c1ccc(F)cc1F [VX-702]"
  pIC50: "< 5.70"
- compound: "COC(=O)[C@H](CCSC)NC(=O)c1ccc(NC[C@@H](N)CS)cc1-c1ccccc1"
  pIC50: "< 5.99"

Query block: Entry C/C(=C\c1csc(C)n1)[C@@H]1C[C@@H]2O[C@]2(C)CCC[C@H](C)[C@H](O)[C@@H](C)C(=O)C(C)(C)[C@@H](O)CC(=O)O1 [PATUPILONE] needs its pIC50 filled in; supply it.
Result block: 9.49

Query block: Report measured pIC50; entry is CC1=C(/C=C/C(C)=C/C=C/C(C)=C/C(=O)O)C(C)(C)CCC1 [TRETINOIN]
Result block: < 5.00

Query block: Given O=C1NC(=O)c2c1c(-c1ccccc1Cl)cc1[nH]c3ccc(O)cc3c21 , respond with its pIC50.
Result block: < 5.70

Query block: Give the measured pIC50 for OC[C@H](Cc1ccccc1)Nc1nc(Oc2ccc3c(c2)CCC3)nc2c1ncn2Cc1ccc(-c2ccccc2)cc1
Result block: 5.41

---

Reported values of pIC50 for individual entries
Tested on: MS-1;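 also: growth inhibition of MS-1 cells, read out by cell viability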
run description: cells
Assay type: functional, cell-based, Homo sapiens
test settings: Homo sapiens, MS-1
Description: SANGER: Inhibition of human MS-1 cell growth in a cell viability assay.
pIC50: −log10 of the molar value.

# example entries with known answers
- chem smiles: "NC(=O)c1ccc(N(C(N)=O)c2c(F)cccc2F)nc1-c1ccc(F)cc1F"
  pIC50: "< 5.70"
- chem smiles: "NC(=O)Nc1cc(-c2cccc(F)c2)sc1C(=O)N[C@H]1CCCNC1"
  pIC50: "< 5.70"

Let us examine a further case.
Query block: Tell me pIC50 reported for Cc1cc(N2CCOCC2)cc2[nH]c(-c3c(NC[C@@H](O)c4cccc(Cl)c4)cc[nH]c3=O)nc12
Result block: < 5.29

---

System: SK-N-FI;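 also: cell viability assay measuring growth inhibition of human SK-N-FI cells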
run description: cells
Assay type: functional, cell-based, Homo sapiens
test settings: sk-n-fi
Description: SANGER: Inhibition of human SK-N-FI cell growth in a cell viability assay.
pIC50: −log10 of the molar value. Where a SMILES comes first, the peptide text is derived from it. The star is where a group is joined. Cbz = O=C(OCc1ccccc1)*
metric name: pIC50

Query block: Identify pIC50 associated with the molecule CC(C)C[C@@H](C=O)NC(=O)[C@H](CC(C)C)NC(=O)[C@H](CC(C)C)NC(=O)OCc1ccccc1 [MG-132] (Cbz-Leu-Leu-Leu-aldehyde)
Result block: < 6.00

---

# IC50 per record follows
System: NCI-H716;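 also: growth inhibition of human NCI-H716 cells, measured by a cell viability assay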
run description: cells
Format: functional, cell-based, Homo sapiens
test settings: Homo sapiens, NCI-H716
Description: SANGER: Inhibition of human NCI-H716 cell growth in a cell viability assay.

- chem smiles: "OC[C@H](Cc1ccccc1)Nc1nc(Oc2ccc3c(c2)CCC3)nc2c1ncn2Cc1ccc(-c2ccccc2)cc1"
  study target: "NCI-H716"
  measurement: "> 10.2 µM"

# context switch: different molecule, same IC50
Query block: Output IC50 of CC(C)C[C@H](NC(=O)[C@H](Cc1ccccc1)NC(=O)c1cnccn1)B(O)O
Result block: > 0.02 µM

---

Test system: SNG-M
run description: cells
Type: functional, cell-based
test settings: Homo sapiens
Description: SANGER: Inhibition of human SNG-M cell growth in a cell viability assay.
metric name: IC50 (nM)
Numeric answer only, unit nM assumed.

Query block: Hello, please tell me recorded IC50 for this one: C/C(=C\c1csc(C)n1)[C@@H]1C[C@@H]2O[C@]2(C)CCC[C@H](C)[C@H](O)[C@@H](C)C(=O)C(C)(C)[C@@H](O)CC(=O)O1
Result block: 0.571

---

Test system: COLO-824
run description: cells
Assay type: functional, cell-based, Homo sapiens
test settings: Homo sapiens, COLO-824
Description: SANGER: Inhibition of human COLO-824 cell growth in a cell viability assay.
pIC50: −log10 of the molar value.
metric name: pIC50

Would you please look over these solved cases?
- compound: "C=CC(=O)N1CCCC(Nc2nc(Nc3ccc(N(C)C(=O)CC)cc3)nc3[nH]cnc23)C1 (stereo not drawn)"
  pIC50: "< 4.99"
- compound: "C/C(=C\\c1csc(C)n1)[C@@H]1C[C@@H]2O[C@]2(C)CCC[C@H](C)[C@H](O)[C@@H](C)C(=O)C(C)(C)[C@@H](O)CC(=O)O1 [PATUPILONE]"
  pIC50: 7.63
- compound: "NC1(c2ccc(-c3nc4ccn5c(=O)[nH]nc5c4cc3-c3ccccc3)cc2)CCC1 [MK-2206]"
  pIC50: "< 5.40"
- compound: "CC1=C(/C=C/C(C)=C/C=C/C(C)=C/C(=O)O)C(C)(C)CCC1 [TRETINOIN]"
  pIC50: "< 5.00"
- compound: "Nc1ccccc1NC(=O)c1ccc(CNC(=O)OCc2cccnc2)cc1 [ENTINOSTAT]"
  pIC50: "< 5.30"

Query block: Output pIC50 of O=C(NCCCNc1nc(Nc2cccc(NC(=O)N3CCCC3)c2)ncc1I)c1cccs1 [BX-795]
Result block: < 5.30

Query block: Report measured pIC50; entry is Cc1cc(N2CCOCC2)cc2[nH]c(-c3c(NC[C@@H](O)c4cccc(Cl)c4)cc[nH]c3=O)nc12
Result block: < 5.29

Query block: Give a short answer stating reported pIC50 for NC(=O)c1ccc(N(C(N)=O)c2c(F)cccc2F)nc1-c1ccc(F)cc1F [VX-702] .
Result block: < 5.70
